Source: ChEMBL document CHEMBL1129984

tested on: Muscarinic acetylcholine receptor M2 (Cavia porcellus); test: Intrinsic activity was measured as the ratio between the maximum response and the maximum response of muscarine in guinea pig heart at Muscarinic acetylcholine receptor M2
// reported Intrinsic activity per item

Molecular string | Intrinsic activity
C[C@@H]1O[C@H](C[N+](C)(C)C)CC1(F)F | 1
C[C@H]1O[C@H](C[N+](C)(C)C)CC1(F)F | 0.98
C[C@@H]1O[C@H](C[N+](C)(C)C)C[C@H]1F | 0.98
C[C@H]1O[C@@H](C[N+](C)(C)C)CC1(F)F | 0.97
C[C@@H]1O[C@@H](C[N+](C)(C)C)CC1(F)F | 1
